target: Solute carrier family 2, facilitated glucose transporter member 1 (Homo sapiens) (UniProt P11166); assay: ST_JUDE_LEISH: Cytotoxicity at 2uM final concentration against transgenic Leishmania Mexicana promastigotes LmGLUT1 that are glucose transport deficient and complemented with the human glucose transporter GLUT1. Activity is measured by DNA content using SYBR green in vitro; assay type: functional
Sequence (P11166 whole entry): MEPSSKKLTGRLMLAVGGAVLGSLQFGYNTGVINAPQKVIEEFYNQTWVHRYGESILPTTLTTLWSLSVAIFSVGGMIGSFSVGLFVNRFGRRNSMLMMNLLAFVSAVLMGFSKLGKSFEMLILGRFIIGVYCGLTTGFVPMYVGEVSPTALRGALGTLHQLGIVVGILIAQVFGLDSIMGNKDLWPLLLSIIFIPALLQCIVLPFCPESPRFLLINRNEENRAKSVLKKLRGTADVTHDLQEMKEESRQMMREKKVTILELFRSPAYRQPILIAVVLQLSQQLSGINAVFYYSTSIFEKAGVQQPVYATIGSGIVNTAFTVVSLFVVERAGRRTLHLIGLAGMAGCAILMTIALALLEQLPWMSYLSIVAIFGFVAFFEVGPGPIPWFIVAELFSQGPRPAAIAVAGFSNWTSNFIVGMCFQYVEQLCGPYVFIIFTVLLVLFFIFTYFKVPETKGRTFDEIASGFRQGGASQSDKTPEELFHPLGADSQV
REPORTED_ENDPOINT: inhibition (%)
Kindly provide the numeric value in % only, without the unit symbol.

COc1ccc(N2CCN(CCCCNCc3ccc(NC(=O)c4cc(Cl)cc(Cl)c4)cc3)CC2)c(OC)c1 has a reported inhibition of 3.33

CCCCCCCCNCc1c(O)ccc2ccccc12 has a reported inhibition of 3.46

CCC(CC)n1c(C)cc2c3c(N)nc(N)nc3ccc21 has a reported inhibition of 89.4

N#Cc1ccc(N(CCOC(=O)c2ccccc2)Cc2ccccc2C(F)(F)F)cc1C(F)(F)F has a reported inhibition of 1.67

O=C(NCc1ccccc1)c1ccc(C(=O)NCC2CNCCO2)cc1 (stereo unspecified) has a reported inhibition of 5.08

CN(C)CCCOc1ccc(CNCc2cccc(Oc3ccc(Cl)cc3)c2)cc1 has a reported inhibition of 6.24

###

biological target: Solute carrier family 2, facilitated glucose transporter member 1 (Homo sapiens) (UniProt P11166); assay: ST_JUDE_LEISH: Cytotoxicity at 2uM final concentration against transgenic Leishmania Mexicana promastigotes LmGLUT1 that are glucose transport deficient and complemented with the human glucose transporter GLUT1. Activity is measured by DNA content using SYBR green in vitro; format: functional
REPORTED_ENDPOINT: inhibition (%)
Kindly provide the numeric value in % only, without the unit symbol.

Cc1cc(C(=O)CN2C(=O)NC(C)(c3ccc4ccccc4c3)C2=O)c(C)n1Cc1ccco1 (centres undefined) has a reported inhibition of -0.27

Cc1nc2ccccc2c(=O)n1NCc1ccc(Cl)c(Cl)c1 has a reported inhibition of -1.5

CCc1ccc(O)c(-c2cc(C(=O)Nc3cccnc3)[nH]n2)c1 has a reported inhibition of 1.69

COc1ccc(-c2cccc(NC(=O)c3cccc(Cl)c3)c2)cc1CN(C)CCN(C)C has a reported inhibition of 1.29

Cc1cc(NC(=O)Nc2ccc(C(C)C)cc2)c2ccccc2n1 has a reported inhibition of 0.71

COc1cc(Nc2nccc(Nc3ccc4c(C)n[nH]c4c3)n2)cc2ccccc12 has a reported inhibition of 5.04

Cc1cc(=NN=Cc2cccc(F)c2)c2ccc(F)cc2[nH]1 has a reported inhibition of 10.5

CNC(=O)c1cnc(Nc2ccc(N3CCOCC3)cc2)nc1Nc1cccc(OC)c1 has a reported inhibition of -0.53

CCCCOc1ccc(-n2c(Nc3ccccc3)nc3cc(S(N)(=O)=O)ccc32)cc1 has a reported inhibition of 11.4

O=C(Nc1cccc(-c2cccc(-c3ccc(F)cc3)n2)c1)c1ccc([N+](=O)[O-])o1 has a reported inhibition of 9.83

Fc1cccc(Nc2nc(NCc3ccc(OCc4ccccc4)cc3)nc(Nc3cccc(F)c3)n2)c1 has a reported inhibition of 11.8

COc1ccc(CNC2CCN(C)CC2)cc1-c1ccc(S(=O)(=O)NCc2ccccc2)c(F)c1 has a reported inhibition of -0.66

COc1ccc2nccc([C@@H](O)CN3CCC(NCCOc4ccc(F)cc4Cl)CC3)c2c1 has a reported inhibition of 9.75

FC(F)(F)c1cccc(Nc2nc(-c3ccccc3)nc3ncccc23)c1 has a reported inhibition of 3.41

N#Cc1ccc2c(c1)CCN(CCC1CCC(NC(=O)Nc3cnc4ccccc4c3)CC1)C2 (centres undefined) has a reported inhibition of 2.8

O=C(CC1SC(N2N=C(c3cccs3)CC2c2ccccc2)=NC1=O)Nc1ccc(Cl)cc1 (centres undefined) has a reported inhibition of 1.98

O=C(Nc1cccc(CN2CCCN(CCc3ccccc3)CC2)c1)c1ccc(Cl)c(Cl)c1 has a reported inhibition of 8.79

COc1ccc(C(C(=O)NC2CCN(C[C@H](O)c3ccnc4ccc(OC)cc34)CC2)N2CCc3ccccc3C2)cc1 (some centres undefined) has a reported inhibition of 2.66

C=CCC(C)n1ncc2c3c(N)nc(N)nc3ccc21 (centres undefined) has a reported inhibition of 2.58

CC(Cc1ccc(CN2CCN(Cc3ccccc3)CC2)cc1)NCC(O)c1cccc(C(F)(F)F)c1 (centres undefined) has a reported inhibition of 5.03

Cc1cc2[nH]c(-c3ccc(C(=O)NCCCN4CCN(c5cccc(Cl)c5)CC4)s3)nc2cc1Cl has a reported inhibition of 3.07

O=C(Nc1ccc(-c2ccc(CN3CCNCC3)cc2)cc1)c1cccc(Cl)c1 has a reported inhibition of 107

COC(=O)c1ccc(OCC(O)CO)cc1O (centres undefined) has a reported inhibition of 0.55

C(=N\Nc1nccc2sc(-c3cccnc3)cc12)/c1ccncc1 has a reported inhibition of 5.3

O=C(Cc1ccc(-n2cnnn2)cc1)N(Cc1cncn1Cc1cccc(C(F)(F)F)c1)CC1CC1 has a reported inhibition of -1.26

CS(=O)(=O)N1CC2(CCN(CCC(NC(=O)NCc3ccc(Cl)c(Cl)c3)c3ccc(Cl)c(Cl)c3)CC2)c2ccccc21 (centres undefined) has a reported inhibition of 0.66

O=C(NCCCN1CCOCC1)c1cccc(Nc2nccc(Nc3ccc(Oc4ccccc4)cc3)n2)c1 has a reported inhibition of 2.39

Cc1cccc2nc(-c3ccc(-c4cccc(CNCc5ccccc5)c4)s3)[nH]c12 has a reported inhibition of -1.26

CCCCCN(C(=O)Nc1cc(C(F)(F)F)cc(C(F)(F)F)c1)C(C)c1nc2ccccc2c(=O)n1CC (centres undefined) has a reported inhibition of -0.28

NC(=O)NC(=O)C=Cc1ccco1 has a reported inhibition of 0.54

CC(C)[C@H](NC(=O)c1ccc(O)c(-c2ccc(Cl)c(Cl)c2)c1)C(=O)NC1CCCCCC1 has a reported inhibition of 0.48

NC(=O)c1ccccc1Nc1nc(Nc2cccc(N3CCN(CCO)CC3)c2)ncc1Cl has a reported inhibition of 64

CCCc1c(C(=O)OCC)c2cc(O)ccc2n1-c1ccc(OC)cc1 has a reported inhibition of 5.29

CC(O)C1CCCCN1C(=O)c1cccc(-c2cccc(-c3nc4cc(F)ccc4[nH]3)c2)c1 (centres undefined) has a reported inhibition of 3.45

O=C(CCn1c2ccccc2c2ccccc21)NN=Cc1ccco1 has a reported inhibition of 7.25

COc1ccc(-c2cccc(NC(=O)c3cccc(C#N)c3)c2)cc1CN1CCCN(C)CC1 has a reported inhibition of 1.45

CCS(=O)(=O)N1CCN(c2nc(-c3ccccc3)nc(COC)c2Cc2ccccc2F)CC1 has a reported inhibition of 3.58

CC(C)(Oc1c(C2CCN(CCCCNC(=O)c3ccc(-c4ccc(C#N)cc4)cc3)CC2)ccc2c1CCCC2)C(N)=O has a reported inhibition of 0.07

COc1ccc(C(C(=O)NC2CCN(C[C@H](O)c3ccnc4ccc(OC)cc34)CC2)N2CCN(Cc3ccccc3)CC2)cc1 (some centres undefined) has a reported inhibition of 0.34
